- assay-details: Human HepG2 cell viability assay in 384 well format
- Type: toxicity, cell-based
- Set-up: dose 125 nL, time 70.5 hour; concentration not given beside the values
- run-conditions: HepG2 cells, read-out: Inhibition
property-name: cytotoxicity at 70.5 h (%)

{"compound": "Cc1cccc(CN2C[C@@H]3CN(C(=O)C4CCOC4)C[C@@H]3C2=O)c1 (stereo partly specified)", "units": "%", "quantitative-result": 2.05}
{"compound": "O=C([C@@H]1CSCN1)N1CCC2(CC1)CNCc1ccccc12", "units": "%", "quantitative-result": 3.6}
{"compound": "CN1CCC(N(C)CCC(=O)N2CCC(Oc3ccc(Cl)cc3)CC2)C1 (stereo unspecified)", "units": "%", "quantitative-result": -5.97}
{"compound": "O=C(c1cccc(-n2cccn2)c1)N1CCCOC(Cn2cccn2)C1 (stereo unspecified)", "units": "%", "quantitative-result": 12.9}
{"compound": "CN(CCc1noc(C2CC2)n1)C(=O)CCc1cc2n(n1)CCCNC2", "units": "%", "quantitative-result": -9.33}
{"compound": "CCN(C)S(=O)(=O)NCC1CCN(Cc2ccccc2C)CC1", "units": "%", "quantitative-result": -9.65}
{"compound": "CN(C(=O)CN1CCC(c2cc3ccccc3[nH]2)CC1)C1CC1", "units": "%", "quantitative-result": -8.97}
{"compound": "Cc1nc(NCc2nonc2C)cc(C(C)Cn2nc(C)c(C)c2C)n1 (stereo unspecified)", "units": "%", "quantitative-result": -7.72}
{"compound": "CCC1CN(CC(=O)Nc2cc(C)nn2C)CCO1 (stereo unspecified)", "units": "%", "quantitative-result": -5.03}
{"compound": "Fc1cccc(N2CCCC3(CN(Cc4nccs4)CCO3)C2)c1 (stereo unspecified)", "units": "%", "quantitative-result": -13.6}
{"compound": "Cc1cnn(CCNCc2csc(-c3ccccc3)n2)c1", "units": "%", "quantitative-result": 15.6}

---

Measured cytotoxicity at 70.5 h values are reported for all entries that follow.
- assay-details: Human HepG2 cell viability assay in 384 well format
- Format: toxicity, cell-based
- Set-up: dose 125 nL, time 70.5 hour; concentration not given beside the values
- run-conditions: HepG2 cells, read-out: Inhibition
property-name: cytotoxicity at 70.5 h (%)

{"molecule": "CS(=O)(=O)Cc1ccccc1NCc1cc(Cl)ccc1Cl", "quantitative-result": 3.86}
{"molecule": "CCS(=O)(=O)NCC1Cn2nnc(-c3ccccc3)c2CO1 (centres undefined)", "quantitative-result": -1.57}
{"molecule": "CC(C)OCCOCc1cccc(NC(=O)NCC(=O)N(C)C)c1", "quantitative-result": -2.88}
{"molecule": "COCC(=O)N1CCC(c2cc(-c3ccc(N)nc3)cc(C)n2)CC1", "quantitative-result": 19.1}
{"molecule": "COCC(=O)NCCc1nc(N(C)C)ncc1-c1ccncc1", "quantitative-result": -6.86}
{"molecule": "CCC(=O)N1CCC(Cc2ccccc2-c2ccncc2)(C(=O)NC)C1 (centres undefined)", "quantitative-result": -7.46}
{"molecule": "CC(=O)N1CCC(c2nn(C)c(=O)n2-c2ccccc2)CC1", "quantitative-result": -1.32}
{"molecule": "COC1(CNC(=O)c2ccc(F)c(F)c2)CCSC1 (centres undefined)", "quantitative-result": -11.7}
{"molecule": "Cc1ccc(CN2CCn3c(COc4cccnc4)cnc3C2C)o1 (centres undefined)", "quantitative-result": -7.88}
{"molecule": "OCc1csc(N2CCCC(CO)(Cc3cccc(Cl)c3)C2)n1 (centres undefined)", "quantitative-result": 12.4}
{"molecule": "Cc1nc(Nc2ncc(C)s2)cc(C2CCCN2)n1.Cl (centres undefined)", "quantitative-result": 95.5}
{"molecule": "CC(N)Cc1ccccc1Sc1ccccc1 (centres undefined)", "quantitative-result": -1.45}
{"molecule": "COCC(=O)NCCCn1ncc2c(C)cccc21", "quantitative-result": -5.2}
{"molecule": "Cc1nccn1C1CCCN(C(=O)c2cc(O)nc3ccccc23)C1 (centres undefined)", "quantitative-result": 12.3}
{"molecule": "COc1cc(C2SCC(=O)Nc3n[nH]cc32)cc(OC)c1O (centres undefined)", "quantitative-result": -19.7}
{"molecule": "Cc1cc(CN(C)CCN(C)c2ccccc2)no1", "quantitative-result": 0.0635}
{"molecule": "CCOCCn1c(=O)n(Cc2ccccc2F)c2cc(C(=O)O)cnc21", "quantitative-result": 11.9}
{"molecule": "c1cc(CNCC2Cn3nncc3CO2)co1 (centres undefined)", "quantitative-result": -6.75}
{"molecule": "O=C(CO)N1CCC(F)(F)C2(CCN(c3ccccc3)C2)C1 (centres undefined)", "quantitative-result": 1.4}
{"molecule": "CCN(CC(=O)NCc1nc(C2CC2)no1)Cc1ccc(Cl)cc1", "quantitative-result": -15.6}
{"molecule": "CCc1nc(C)ncc1C(=O)N1CC(=O)N(C)c2ccccc21", "quantitative-result": -10.1}
{"molecule": "O=C1CO[C@H]2CN(Cc3cccnc3)C[C@H]2N1", "quantitative-result": -1.16}
{"molecule": "CCc1nc(NS(=O)(=O)c2cccc(F)c2C)no1", "quantitative-result": 7}
{"molecule": "Cc1nc(N)cc(N2CCCC(COc3cccc(F)c3)C2)n1 (centres undefined)", "quantitative-result": -16.1}
{"molecule": "O=C(c1sccc1C1CC1)N1CCN(c2ncccn2)CC1", "quantitative-result": -0.605}
{"molecule": "Cc1ccc(CCNC(=O)CC2COCCN2S(=O)(=O)N(C)C)s1 (centres undefined)", "quantitative-result": -11}
{"molecule": "COc1ccc(-n2ccnc2-c2cnc(N(C)C)nc2)cc1OC", "quantitative-result": -6.47}
{"molecule": "Cc1nn(C)c(C)c1-c1ccnc(N(C)Cc2nc(C(C)C)no2)n1", "quantitative-result": 3.94}
{"molecule": "CNC(=O)C1(CCCc2cnccn2)CCN1CCc1ccccc1 (centres undefined)", "quantitative-result": -2.58}
{"molecule": "FC(F)(F)c1cccc(N2CCC(NCc3cccnc3)CC2)c1", "quantitative-result": 26.9}
{"molecule": "Cc1ccsc1CNC(=O)CC1CN(C(=O)OC(C)(C)C)C1", "quantitative-result": -9.31}
{"molecule": "CCc1cc(N(C)Cc2noc(C(C)C)n2)nc(N2CCOCC2)n1", "quantitative-result": -13.5}
{"molecule": "CCSc1cc(C(=O)NC2CCN(C(=O)c3ccccc3)CC2)ccn1", "quantitative-result": -17.6}
{"molecule": "CN(C)CC1(O)CCN(C(=O)Cc2ccc(Cl)c(Cl)c2)C1 (centres undefined)", "quantitative-result": 10.5}
{"molecule": "CC(=O)Nc1cc(Br)cnc1OCC(F)(F)F", "quantitative-result": 20.4}
{"molecule": "O=C(Cc1ccc(-n2cnnn2)cc1)Nc1cnn(CC(F)F)c1", "quantitative-result": -15.7}
{"molecule": "OCCN1CCN(Cc2coc(-c3cccc(F)c3)n2)CC1", "quantitative-result": -7.98}
{"molecule": "COc1c(Cl)cc(C(=O)NCc2n[nH]c(C)n2)cc1Cl", "quantitative-result": 2.06}
{"molecule": "CC(C)c1nc(CN2CCCC2CN2CCCC2)cs1 (centres undefined)", "quantitative-result": -7.95}
{"molecule": "CN(C)[C@@H]1CCN(C(=O)Cc2cccs2)[C@H]1Cc1ccncc1", "quantitative-result": -8}
{"molecule": "O=c1[nH]c(=O)n(CC(O)c2ccc(F)cc2F)cc1Cl (centres undefined)", "quantitative-result": 0.374}
{"molecule": "Cc1csc(CN2CC[C@@](O)(C3CCOCC3)[C@H](C)C2)n1", "quantitative-result": -5.11}
{"molecule": "Cc1n[nH]cc1C(=O)N1CCCC(n2nnc3cc(F)ccc32)C1 (centres undefined)", "quantitative-result": -12.2}
{"molecule": "COCCC1COC2(CCN(C(=O)c3cccn3C)CC2)C1 (centres undefined)", "quantitative-result": -14.7}
{"molecule": "Cc1cc(C)n(CC2(CNC(=O)C(c3ccccc3F)N(C)C)CC2)n1 (centres undefined)", "quantitative-result": -5.49}
{"molecule": "OC1(Cn2ccc3ccncc32)CCN(Cc2ccccn2)CC1", "quantitative-result": -2.48}
{"molecule": "CC(C)Cn1nc(-c2ccc(C(=O)O)cc2)cc1-c1ccc(F)cc1", "quantitative-result": -5.39}
{"molecule": "CC(C)NC(=O)CC1COC2(CCN(Cc3cccnc3)CC2)C1 (centres undefined)", "quantitative-result": -12.2}
{"molecule": "CCCc1cc(N(CCOC)CC(F)F)n2ncnc2n1", "quantitative-result": 18.6}

---

- assay-details: Human HepG2 cell viability assay in 384 well format
- Format: toxicity, cell-based
- Parameters: dose 125 nL, time 70.5 hour; concentration not given beside the values
- run-conditions: HepG2 cells, read-out: Inhibition
Measured cytotoxicity at 70.5 h values are reported for all entries that follow.

{"molecule": "COc1cc(NC(=O)NCc2nccn2C)ccc1Br", "cytotoxicity at 70.5 h / %": -4.24}
{"molecule": "O=C(c1cnn[nH]1)N(CCCO)Cc1cccnc1", "cytotoxicity at 70.5 h / %": 1.99}
{"molecule": "C[C@@H]1CN(C(=O)C2(N3CCCCC3)Cc3ccccc3C2)C[C@H](C)O1", "cytotoxicity at 70.5 h / %": -9}
{"molecule": "Nc1nccc(N2CCNC(C(=O)NCc3ccccn3)C2)n1 (configuration not stated)", "cytotoxicity at 70.5 h / %": 10.1}
{"molecule": "Cn1nc(CN2CCC(c3ccncc3)CC2)c2c(Cl)cccc21", "cytotoxicity at 70.5 h / %": -0.977}
{"molecule": "Cc1cnn(CC(=O)Nc2cc(-n3nnnc3C3CC3)ccc2F)c1", "cytotoxicity at 70.5 h / %": -7.79}
{"molecule": "CCc1cc(=O)[nH]c(SCc2ccccn2)n1", "cytotoxicity at 70.5 h / %": -5.73}
{"molecule": "Cc1cccc(C(=O)NCCS(=O)(=O)Cc2ccccc2)c1", "cytotoxicity at 70.5 h / %": -8.95}
{"molecule": "Cc1ccc(-c2nc(CN3CCC(N4CCNC4=O)CC3)co2)cc1", "cytotoxicity at 70.5 h / %": -0.587}
{"molecule": "Cc1cc(N2CCC(NC(=O)CCC3CCCO3)CC2)nc(C)n1 (configuration not stated)", "cytotoxicity at 70.5 h / %": -5.62}
{"molecule": "Cc1cnn(C2CN(CC(O)c3ccc4c(c3)OCCO4)C2)c1 (configuration not stated)", "cytotoxicity at 70.5 h / %": -3.93}
{"molecule": "CNC(=O)C1(C)CN(c2nc(C)cc(C)n2)CCO1 (configuration not stated)", "cytotoxicity at 70.5 h / %": 1.44}
